The reader will find reported TGI values listed item by item below.
- Tested on: DU-145 prostate
- Measurement protocol: NCI tumour cell line growth inhibition, 48 h

// known answers, use as guide
CCC(C)NC1=NCC(C)S1 (stereo unspecified): > 100 µM
O=C1c2ccccc2C(=O)N1CCCCNOCCCN1C(=O)c2ccccc2C1=O: > 100 µM
COCCCNc1nc(N)c(C#N)c(C#N)c1C#N: > 10 µM

Identify TGI associated with the compound CC(=O)O[C@H]1CCC2[C@@H]3CC[C@]4(C)CC(=O)C=C[C@]4(C)C3CC[C@@]21C (stereo partly specified) > 100 µM

Identify TGI associated with the compound COC(=O)c1cc2c(cc1CC(Cc1ccc3c(c1)CCCC3)C(=O)OC)CCCC2 (stereo unspecified) > 100 µM

Identify TGI associated with the compound C[N+]1(C)CCc2cc(O)c(O)cc2C1Cc1ccc(O)c(O)c1 (stereo unspecified) > 100 µM

Identify TGI associated with the compound CCCCC1Cc2ccccc2-c2nc3ccccc3n21 (stereo unspecified) 38.1 µM

Identify TGI associated with the compound `Cc1ccc(S(=O)(=O)N/N=C2/CCCOC2)cc1` > 100 µM

Identify TGI associated with the compound `CN(C(=O)Cc1cccc(N=C=S)c1)[C@H]1CCCC[C@@H]1N1CCCC1` 27.7 µM

Identify TGI associated with the compound `CCOC(=O)Cc1nc2cc(F)c(F)cc2[nH]c1=O` > 100 µM

Identify TGI associated with the compound `CC(C)c1ccc(-c2cc(-c3cn[nH]c3-c3ccccn3)ccn2)cc1` > 25 µM

###

- Test system: MDA-N
- Measurement protocol: NCI tumour cell line growth inhibition, 48 h
Parameter: TGI

// known answers, use as guide
CCOC(=O)c1ccc(NCc2ccc3oc(=O)c(-c4ccccc4)nc3c2)cc1: 50.8 µM
O=C(NCP(=O)(c1ccccc1)c1ccccc1)OCc1ccccc1: > 100 µM
N#C/C(=C/NC(N)=S)C(N)=O: > 100 µM
COc1c2c(cc3c1OCO3)[C@]13C=C[C@H](OC)C[C@H]1N(C2)CC3O (stereo not given in full): > 100 µM

Under MDA-N: report TGI of `Clc1ccc(-c2cc3nc4ccccc4nc3o2)cc1` . > 100 µM

Under MDA-N: report TGI of `COCc1nc2c(OC)c(-c3nc4nc(N5CCN(C)CC5)ccc4[nH]3)cc(OC)c2n1C` . > 100 µM

Under MDA-N: report TGI of `COc1cc(-c2nc3ccccn3c2/N=C/c2cc(Br)cc(Br)c2O)ccc1O` . 59 µM

Under MDA-N: report TGI of `COc1ccc(-c2cc(-c3cc(C)cc(Br)c3O)no2)cc1` . > 100 µM

Under MDA-N: report TGI of `Cn1c([C@H](C#N)c2ncccc2[N+](=O)[O-])nc2ccccc21` . > 100 µM

Under MDA-N: report TGI of CC(=O)O[C@H]1CCC2[C@@H]3CC[C@]4(C)CC(=O)C=C[C@]4(C)C3CC[C@@]21C (stereo not given in full) . 74.7 µM

###

- System: CAKI-1 renal
- Measurement protocol: NCI tumour cell line growth inhibition, 48 h
The reader will find reported TGI values listed item by item below.

// known answers, use as guide
Nc1nc(-c2ccccc2)cc(-c2ccc(OCc3ccccc3)cc2O)n1: > 100 µM
CCC(=O)Oc1ccc2c(c1)c(=O)c1c(NCCCN(C)C)ccc3nnn2c31: 14.3 µM
CC1=CCC(O)C=CC(C)C(O)C(C)C=C(C)C(=O)c2c(O)c(C)cc3c2C(=O)C(N)=C(NC(=O)/C=C\C=C/C=CC(C)C(O)CC1=O)C3=O (stereo not given): > 100 µM
C(/C=C/Nc1ccc(Oc2ccccc2)cc1)=Nc1ccc(Oc2ccccc2)cc1: 32.7 µM
CCOC(=O)C1C(=O)CC1(C)C (stereo not given): > 10 µM

Shifting focus to the compound that follows.
Identify TGI associated with the compound `COc1cc(/C=C/c2ccc(OC)c(O)c2)cc(OC)c1` 72.8 µM

###

The reader will find reported TGI values listed item by item below.
- Test system: SF-268 CNS
- Measurement protocol: NCI tumour cell line growth inhibition, 48 h

C1=Cc2cc3c(c4nccc(c24)N1)OCO3: 28.9 µM
Cc1cc(C(=O)Nc2ccc3cc(CN4CCOCC4)ccc3n2)c(C)n1-c1ccccc1: 35.7 µM
CCc1nc(N)nc(N)c1-c1ccc(NC)c([N+](=O)[O-])c1: > 100 µM
COc1ccc(CN2CC(C)(C)C2=O)c(OC)c1: > 100 µM

Shifting focus to the molecule that follows.
Identify TGI associated with the molecule `CC1(C)C(=O)/C(=C\c2cccnc2)C[C@]2(C)[C@H]3CC[C@@H]4[C@H]5[C@H](C(=O)/C=C/c6cccnc6)CC[C@]5(C(=O)O)CC[C@@]4(C)[C@]3(C)CC[C@@H]12` 5.46 µM

###

- Test system: K-562 leukemia
- Measurement protocol: NCI tumour cell line growth inhibition, 48 h
The reader will find reported TGI values listed item by item below.

// known answers, use as guide
CC/C=C\C[C@H](O)C/C=C1/C(=O)C=C[C@@H]1C/C=C\CCCC(=O)OC: 21.7 µM
C=C(C)[C@@H]1CC[C@]2(CO)CC[C@]3(C)[C@H](CC[C@@H]4[C@@]5(C)C=C(C#N)C(=O)C(C)(C)[C@@H]5CC[C@]43C)[C@@H]12: > 100 µM

Identify TGI associated with the molecule `O=C1NC(=S)NC(=O)C1C(c1ccc(O)cc1)C1C(=O)NC(=S)NC1=O` > 100 µM

Identify TGI associated with the molecule `CCc1cc(Cc2cc(CC)c(NC(=O)C(=O)CC(=O)c3sc(-c4cccnc4)nc3C)c(CC)c2)cc(CC)c1NC(=O)C(=O)CC(=O)c1sc(-c2cccnc2)nc1C` > 100 µM

###

- Test system: HT29 colon
- Measurement protocol: NCI tumour cell line growth inhibition, 48 h
Parameter: TGI

CCOC(=O)c1cn2c(n1)sc1cc(Cl)ccc12: > 100 µM
C/C(=N/NC(N)=S)c1ccc[nH]1: > 100 µM
COc1ccc(CN2CC(C)(C)C2=O)c(OC)c1: > 100 µM

Identify TGI associated with the compound `N#Cc1c(-c2ccccc2)[nH]c2ccc(Cl)cc2c1=O` > 100 µM

Identify TGI associated with the compound `C[C@@H](c1ccccc1)n1c(N)c(C#N)c2ccc([N+](=O)[O-])cc2c1=O` 28.1 µM

Identify TGI associated with the compound O=C1C2C3C=C4c5ccccc5N(c5ccccc5)C4(C2C(=O)N1c1ccc([N+](=O)[O-])cc1)[C@H]1C(=O)N(c2ccc([N+](=O)[O-])cc2)C(=O)[C@@H]31 (stereo partly specified) > 100 µM

Identify TGI associated with the compound `NC(=O)c1cc(Cl)ccc1NC(=O)/C=C/c1ccccc1` > 100 µM

###

- Test system: MDA-MB-231 breast
- Measurement protocol: NCI tumour cell line growth inhibition, 48 h
The reader will find reported TGI values listed item by item below.

Nc1nc(-c2ccccc2)cc(-c2ccc(OCc3ccccc3)cc2O)n1: > 100 µM

Under MDA-MB-231 breast: report TGI of `C(/C=C/Nc1ccc(Oc2ccccc2)cc1)=Nc1ccc(Oc2ccccc2)cc1` . 31.1 µM

Under MDA-MB-231 breast: report TGI of `Cc1ccc(S(=O)(=O)N/N=C2/CCCOC2)cc1` . > 100 µM

Under MDA-MB-231 breast: report TGI of `Cc1cc2ncnn2cc1Nc1ncc2c(n1)n(C1CCOCC1)c(=O)n2C` . > 100 µM

Under MDA-MB-231 breast: report TGI of CCCC(CCC)NCC(O)c1cc(-c2ccc(C(F)(F)F)cc2)nc(C(F)(F)F)c1 (stereo not given) . 3.17 µM

Under MDA-MB-231 breast: report TGI of `CC(C)c1ccc(-c2cc(-c3cn[nH]c3-c3ccccn3)ccn2)cc1` . > 25 µM

Under MDA-MB-231 breast: report TGI of `CC/C=C\C[C@H](O)C/C=C1/C(=O)C=C[C@@H]1C/C=C\CCCC(=O)OC` . 9.23 µM

Under MDA-MB-231 breast: report TGI of O=C(NC(Cc1ccccc1)(Cc1ccc(O)cn1)C(=O)O)c1ccccc1 (stereo not given) . > 100 µM

Under MDA-MB-231 breast: report TGI of `CCc1nc(N)nc(N)c1-c1ccc(NC)c([N+](=O)[O-])c1` . > 100 µM

Under MDA-MB-231 breast: report TGI of NNC(=S)N/N=C(/C(=O)Nc1ccc(Cl)c(Cl)c1)C(C1OC(=O)c2ccccc21)[N+](=O)[O-] (stereo not given) . > 100 µM

###

The reader will find reported TGI values listed item by item below.
- Tested on: LOX IMVI melanoma
- Measurement protocol: NCI tumour cell line growth inhibition, 48 h
The figure you give is taken to be in µM; do not add the unit.

// known answers, use as guide
CC/C=C\C[C@H](O)C/C=C1/C(=O)C=C[C@@H]1C/C=C\CCCC(=O)OC: 0.609
Cc1cc2nc(C=C(C(F)(F)F)C(F)(F)F)oc2cc1C: 3.96
CN(C(=O)Cc1cccc(N=C=S)c1)[C@H]1CCCC[C@@H]1N1CCCC1: 31.3

Identify TGI associated with the molecule C[Si](C)(C)OC1CC(=O)OC1n1cc(F)c(=O)[nH]c1=O (configuration not stated) 32.5

Identify TGI associated with the molecule `Clc1ccc(C[P+](c2ccccc2)(c2ccccc2)c2ccccc2)c(Cl)c1` 12.9
